Biological target: T1, naked peptide MADDYGSEST (human)
T1 peptide: MADDYGSEST
Assay: ELISA naked peptide; scFv 1 ug/mL; repI

{"columns": ["binder", "scale_unit", "OD450"],
 "data": [
  ["Comparative antibody 2 (Comp-2) scFv, 243LO326 (VH SEQ ID NO: 51 and VL SEQ ID NO: 52 of WO 2022/195028 A2), His-tagged (scFv) scFv: QVQLVQSGAEVKKPGASVKVSCKASGYTFTSYWMHWVRQAPGQGLEWIGVIYPGNSDTRYNQKFKGRVTITRDTSASTAYMELSSLRSEDTAVYYCTRDYYSNYVYYYAMDYWGQGTTVTVSSGGGGSGGGGSGGGGSGGGGSDIVMTQTPLSLPVTPGEPASISCRSSQSLVHPNRNTYLHWYLQKPGQSPQLLIYKVSNRFSGVPDRFSGSGSGTDFTLKISRVEAEDVGVYYCSQSTHVPWTFGQGTKLEIKHHHHHH", "OD", 0.02],
  ["CCR9_HUM2 scFv (humanized anti-CCR9 scFv, SEQ ID NO: 17 with C-terminal 6xHis tag) (scFv) scFv: QVQLVQSGAEVKKPGASVKVSCTASGYSFTDYIIYWVKQAHGQSLEWMGYIDPNNYNTRYSQKFQGKVTITVDKSSTSAYMELNSLTSDDTAVYYCARDVYWGQGTTVTVSSGGGGSGGGGSGGGGSGGGGSDVVMTQTPLSLSVTPGQPASISCRSSQSLVHSNGKTYLQWYLQKPGQSPKLLIYKVSNRFSGVPDRFSGSGSGTDFTLKISRVEAEDVGVYFCAQSTHVWTFGGGTKVEIKRAHHHHHH", "OD", 0.03],
  ["Comparative antibody 3 (Comp-3) scFv, SR_92R (Somovilla-Crespo et al. 2018), His-tagged (scFv) scFv: EVKLEESGGGLVQPGGSMKLSCVASGFTFNKFWMNWVRQSPEKGLEWVAEIRLKSNNYATHYAESVKGRFTISRDDSKSSVYLQMNNLRAEDTGIYYCASDGWFAYWGQGTLVTVSAGGGGSGGGGSGGGGSGGGGSDVVMTQTPLSLPVSLGDQASISCRSSQSLVHSNGNTYLNWCLQRPGQSPKSLIYKVSNRFSGVPDRFSGSGSGTDFTLKISRVEAEDLGVYFCSQSTHFPRTFGGGTKLEIKRHHHHHH", "OD", 0.02],
  ["Comparative antibody 1 (Comp-1) scFv, SEQ ID NO: 10 from WO2023/037125 A1, His-tagged (scFv) scFv: QVQLKESGPGLVQPSQTLSLTCTVSGFSVASYDMHWVRLPPGKGLEWMGIIWANGNTHYNSGLKSRLSISRDTSKSQVFLKMNSLQTEDTAIYFCTRGGFAYWGQGTLVTVSSGGGGSGGGGSGGGGSGGGGSDVVMTQTPVSLSVSLGGQVSISCRSSQSLVHNNGNTYLSWYLQKPGQSPQLLIYKVSNRFSGVSDRFSGSGSGTDFTLKISRVEPDDLGVYYCGQGTQYPTFGGGTKLELKHHHHHH", "OD", 0.02]
]}
